Molecular target: wild-type human ALK (cytoplasmic domain, amino acids 1058-1620, N-terminal GST fusion) (Homo sapiens)
Construct: The cytoplasmic domain (amino acids 1058-1620) of wild-type human ALK; GST (N); made in house; host or cells: SF9 insect cells
Sequence (Q9UM73 1058-1620): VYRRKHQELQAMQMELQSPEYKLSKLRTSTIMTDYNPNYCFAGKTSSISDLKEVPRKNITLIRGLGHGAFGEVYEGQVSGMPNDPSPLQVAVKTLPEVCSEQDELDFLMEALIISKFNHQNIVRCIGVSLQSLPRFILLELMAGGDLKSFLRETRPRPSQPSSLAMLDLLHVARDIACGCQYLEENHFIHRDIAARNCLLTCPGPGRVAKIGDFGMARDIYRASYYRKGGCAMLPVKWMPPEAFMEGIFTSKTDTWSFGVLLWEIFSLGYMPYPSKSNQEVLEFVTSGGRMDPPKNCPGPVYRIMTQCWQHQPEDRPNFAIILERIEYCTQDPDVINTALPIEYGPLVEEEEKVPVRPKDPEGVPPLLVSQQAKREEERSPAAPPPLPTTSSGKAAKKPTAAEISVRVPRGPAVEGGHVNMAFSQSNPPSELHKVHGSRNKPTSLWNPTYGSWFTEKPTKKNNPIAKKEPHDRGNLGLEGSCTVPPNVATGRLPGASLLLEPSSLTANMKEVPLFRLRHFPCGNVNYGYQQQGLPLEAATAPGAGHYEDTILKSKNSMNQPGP
Experiment: ALK Inhibition in Enzyme Assay (Lance TR-FRET kinase assay)
Format: biochemical
pIC50: −log10 of the molar value.
# key: entry, value: pIC50

- Molecule: "Cc1n[nH]c([C@H]2CC[C@@H](n3/c(=N/C(=O)c4cccc(F)c4)[nH]c4ccc(CO)cc43)CC2)n1 [Example 73]"
  Reported Endpoint: "pIC50"
  Result: "6.00 to 7.00"
- Molecule: "C=CCNS(=O)(=O)c1cc(C(=O)Nc2nc3ccc(CN4CCCCC4)cc3n2[C@H]2CC[C@@H](C(=O)OC)CC2)ccc1F [Example 33]"
  Reported Endpoint: "pIC50"
  Result: "> 7.30"
- Molecule: "CC(C)(C)OC(=O)N1CCC(n2/c(=N/C(=O)c3ccccc3)[nH]c3cnc(OCCN4CCCCC4)cc32)CC1 [Example 64]"
  Reported Endpoint: "pIC50"
  Result: "6.00 to 7.00"
- Molecule: "CC[N+](CC)(CC)Cc1ccc2[nH]/c(=N\\C(=O)c3ccc(F)cc3)n([C@H]3CC[C@@H](C(=O)NC(C)C)CC3)c2c1 [Example 187]"
  Reported Endpoint: "pIC50"
  Result: "> 7.30"
- Molecule: "CC(C)NC(C)[C@H]1CC[C@@H](n2/c(=N/C(=O)c3cccc(F)c3)[nH]c3ccc(CN4CCC(C(C)(C)O)CC4)cc32)CC1 (stereo partly shown) [Example 72]"
  Reported Endpoint: "pIC50"
  Result: "> 7.30"
- Molecule: "CCOC(=O)[C@H]1CC[C@@H](n2c(NC(=O)c3ccc(F)cc3)nc3ccc(CO)cc32)CC1 [Example 6]"
  Reported Endpoint: "pIC50"
  Result: "> 7.30"

Kindly consider the entry below.
**Query** Tell me its pIC50 given CC(C)NC(=O)[C@H]1CC[C@@H](n2/c(=N/C(=O)c3ccc(F)cc3F)[nH]c3cnc(OCCN4CCCCC4)cc32)CC1 [Example 94] as the entry.
**Result** 7.00 to 7.30

Origin of the recorded values: patent US9115127B2
